# TARGET SYSTEM: T1, mouse TEAD4(210-427) (mouse, UniProt Q62296 210-427)
# T1 construct: mouse TEAD4, residues 210-427; The tag was cleaved with 3C protease only for the crystallisation; nothing is said for SPR and FP; also called mTEAD4; source: E. coli BL21 DE3 RIL, purified (His Trap, SEC)
# T1 sequence (Q62296 210-427): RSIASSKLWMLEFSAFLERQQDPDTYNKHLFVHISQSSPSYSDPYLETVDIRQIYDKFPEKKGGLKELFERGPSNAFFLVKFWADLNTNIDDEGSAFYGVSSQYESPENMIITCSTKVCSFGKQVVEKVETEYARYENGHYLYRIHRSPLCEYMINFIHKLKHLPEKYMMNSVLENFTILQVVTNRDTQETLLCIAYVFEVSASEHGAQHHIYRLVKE
# PROTOCOL NOTES: SPR; GST-hTEAD1 or mTEAD4 amine-coupled to a CM5 chip (10 mM MES pH 6.4), peptides as analytes; 10 mM HEPES, 150 mM NaCl, 0.05% Tween-20, pH 7.4, 20 °C, 30 µL/min; steady-state fit, 1:1 model
# SETUP CONDITIONS: both partners purified
Ends that are not written are not given here.
MEASURED ENDPOINT: Kd (nM)
API: value field is a number in nM; no unit string.

IN: Please give the measured Kd for this binder: Ac-SVDDHFAKALGDTWLQIKAA (VGL4 two-helix motif (helices alpha2/alpha3); Synthesised on Rink amide resin: C-terminal amide surmised; source: synthetic peptide) [peptide 4, acetylated (two-helix motif of VGL4)]
OUT: 1500
